# Test system: E. coli IBRS E003
# measurement.description: Antimicrobial microdilution assay (MIC/MBC)
# Format: cell-based, Escherichia coli
# condition: Escherichia coli, IBRSE003; subcultivation, 24 h at 37 °C; read-out: MBC
# key: entry, value: MBC
assay.readout: MBC

C[C@@H]1O[C@@H](OC[C@H]2O[C@@H](Oc3c(-c4ccc(O)c(O)c4)oc4cc(O)cc(O)c4c3=O)[C@H](O)[C@@H](O)[C@@H]2O)[C@H](O)[C@H](O)[C@H]1O | > 1000 µg/mL
COc1ccc([C@@H]2CC(=O)c3c(O)cc(O)cc3O2)cc1O | > 1000 µg/mL
C[C@@H]1O[C@@H](O[C@H]2[C@H](Oc3cc(O)c4c(c3)O[C@H](c3ccc(O)cc3)CC4=O)O[C@H](CO)[C@@H](O)[C@@H]2O)[C@H](O)[C@H](O)[C@H]1O | > 1000 µg/mL
O=C(O)c1cc(O)c(O)c(O)c1 | > 1000 µg/mL
O=c1c(O)c(-c2ccc(O)cc2O)oc2cc(O)cc(O)c12 | 500 µg/mL
[H]/N=C(/N)N[C@H]1[C@H](O)[C@@H](O)[C@H](O[C@@H]2O[C@@H](C)[C@](O)(C=O)[C@H]2O[C@@H]2O[C@@H](CO)[C@H](O)[C@@H](O)[C@@H]2NC)[C@@H](N/C(N)=N\[H])[C@@H]1O [Streptomycin, reference compound] | 200 µg/mL

* * *

In this section, each of the molecules is paired with its reported MBC.
# System: P. aeruginosa MMA83
# measurement.description: Antimicrobial microdilution assay (MIC/MBC)
# Assay type: cell-based, Pseudomonas aeruginosa
# condition: Pseudomonas aeruginosa, MMA83; subcultivation, 24 h at 37 °C; read-out: MBC
assay.readout: MBC (µg/mL)

O=C1C[C@@H](c2ccc(O)cc2)Oc2cc(O)cc(O)c21 [Naringenin, naringenin] | 1000
O=C(O)/C=C/c1ccc(O)cc1 [p-Coumaric Acid, p-coumaric acid] | 1000
C[C@@H]1O[C@@H](OC[C@H]2O[C@@H](Oc3c(-c4ccc(O)c(O)c4)oc4cc(O)cc(O)c4c3=O)[C@H](O)[C@@H](O)[C@@H]2O)[C@H](O)[C@H](O)[C@H]1O [Rutin, rutin] | 500
O=c1c(O[C@@H]2O[C@H](CO)[C@@H](O)[C@H](O)[C@H]2O)c(-c2ccc(O)c(O)c2)oc2cc(O)cc(O)c12 [Isoquercitrin, isoquercitrin] | 250

* * *

Below, each entry is listed alongside its reported MBC.
# System: P. aeruginosa MMA83
# measurement.description: Antimicrobial microdilution assay (MIC/MBC)
# Type: cell-based, Pseudomonas aeruginosa
# condition: Pseudomonas aeruginosa, MMA83; subcultivation, 24 h at 37 °C; read-out: MBC
assay.readout: MBC (µg/mL)

O=c1c(O)c(-c2ccc(O)cc2O)oc2cc(O)cc(O)c12 [Morin, morin] | 1000
COc1ccc([C@@H]2CC(=O)c3c(O)cc(O)cc3O2)cc1O [Hesperetin, hesperetin] | 1000
O=C(O)c1cc(O)c(O)c(O)c1 [Gallic Acid, gallic acid] | 1000

* * *

# System: P. aeruginosa MMA83
# measurement.description: Antimicrobial microdilution assay (MIC/MBC)
# Type: cell-based, Pseudomonas aeruginosa
# condition: Pseudomonas aeruginosa, MMA83; 37 °C, 24 h; read-out: MIC
Listed here are compounds together with their documented MIC.
assay.readout: MIC

[H]/N=C(/N)N[C@H]1[C@H](O)[C@@H](O)[C@H](O[C@@H]2O[C@@H](C)[C@](O)(C=O)[C@H]2O[C@@H]2O[C@@H](CO)[C@H](O)[C@@H](O)[C@@H]2NC)[C@@H](N/C(N)=N\[H])[C@@H]1O [Streptomycin, reference compound] | > 1000 µg/mL
C[C@@H]1O[C@@H](O[C@H]2[C@H](Oc3cc(O)c4c(c3)O[C@H](c3ccc(O)cc3)CC4=O)O[C@H](CO)[C@@H](O)[C@@H]2O)[C@H](O)[C@H](O)[C@H]1O | > 1000 µg/mL
C[C@@H]1O[C@@H](OC[C@H]2O[C@@H](Oc3c(-c4ccc(O)c(O)c4)oc4cc(O)cc(O)c4c3=O)[C@H](O)[C@@H](O)[C@@H]2O)[C@H](O)[C@H](O)[C@H]1O | 500 µg/mL

* * *

# Test system: Methicillin resistant S. aureus IBRS MRSA 011
# measurement.description: Antimicrobial microdilution assay (MIC/MBC)
# Type: cell-based, Staphylococcus aureus
# condition: Staphylococcus aureus, MRSA; 37 °C, 24 h; read-out: MIC
assay.readout: MIC

O=C(O)/C=C/c1ccc(O)cc1 | 500 µg/mL
O=c1c(O[C@@H]2O[C@H](CO)[C@@H](O)[C@H](O)[C@H]2O)c(-c2ccc(O)c(O)c2)oc2cc(O)cc(O)c12 | 500 µg/mL
C[C@@H]1O[C@@H](O[C@H]2[C@H](Oc3cc(O)c4c(c3)O[C@H](c3ccc(O)cc3)CC4=O)O[C@H](CO)[C@@H](O)[C@@H]2O)[C@H](O)[C@H](O)[C@H]1O | 500 µg/mL
O=C1C[C@@H](c2ccc(O)cc2)Oc2cc(O)cc(O)c21 | 250 µg/mL
COc1ccc([C@@H]2CC(=O)c3c(O)cc(O)cc3O2)cc1O | 500 µg/mL
O=C(O)c1cc(O)c(O)c(O)c1 | > 1000 µg/mL
O=C1c2c(O)cc(O)cc2OC(c2ccc(O)c(O)c2)C1O (stereo not drawn) | 250 µg/mL
C[C@@H]1O[C@@H](OC[C@H]2O[C@@H](Oc3c(-c4ccc(O)c(O)c4)oc4cc(O)cc(O)c4c3=O)[C@H](O)[C@@H](O)[C@@H]2O)[C@H](O)[C@H](O)[C@H]1O | 500 µg/mL
O=c1c(O)c(-c2ccc(O)cc2O)oc2cc(O)cc(O)c12 | 120 µg/mL

* * *

# Tested on: K. pneumoniae IT977
# measurement.description: Antimicrobial microdilution assay (MIC/MBC)
# Format: cell-based, Klebsiella pneumoniae
# condition: Klebsiella pneumoniae, IT977; subcultivation, 24 h at 37 °C; read-out: MBC
The compounds listed here are annotated with their MBC.
assay.readout: MBC (µg/mL)

O=C1C[C@@H](c2ccc(O)cc2)Oc2cc(O)cc(O)c21 | 1000
O=C(O)c1cc(O)c(O)c(O)c1 | 1000
O=C(O)/C=C/c1ccc(O)cc1 | 1000

* * *

# System: E. coli IBRS E003
# measurement.description: Antimicrobial microdilution assay (MIC/MBC)
# Type: cell-based, Escherichia coli
# condition: Escherichia coli, IBRSE003; subcultivation, 24 h at 37 °C; read-out: MBC
Here, each record is paired with measured MBC data.
assay.readout: MBC (µg/mL)

O=C1c2c(O)cc(O)cc2OC(c2ccc(O)c(O)c2)C1O (centres unmarked) [Taxifolin, taxifolin] | 1000
O=C1C[C@@H](c2ccc(O)cc2)Oc2cc(O)cc(O)c21 [Naringenin, naringenin] | 1000

* * *

# Tested on: A. baumannii 6077/12
# measurement.description: Antimicrobial microdilution assay (MIC/MBC)
# Format: cell-based, Acinetobacter baumannii
# condition: Acinetobacter baumannii, 6077/12; 37 °C, 24 h; read-out: MIC
assay.readout: MIC

C[C@@H]1O[C@@H](OC[C@H]2O[C@@H](Oc3c(-c4ccc(O)c(O)c4)oc4cc(O)cc(O)c4c3=O)[C@H](O)[C@@H](O)[C@@H]2O)[C@H](O)[C@H](O)[C@H]1O | 500 µg/mL
C[C@@H]1O[C@@H](O[C@H]2[C@H](Oc3cc(O)c4c(c3)O[C@H](c3ccc(O)cc3)CC4=O)O[C@H](CO)[C@@H](O)[C@@H]2O)[C@H](O)[C@H](O)[C@H]1O | > 1000 µg/mL
COc1ccc([C@@H]2CC(=O)c3c(O)cc(O)cc3O2)cc1O | 500 µg/mL
O=C1c2c(O)cc(O)cc2OC(c2ccc(O)c(O)c2)C1O (centres unmarked) | 500 µg/mL
O=C(O)c1cc(O)c(O)c(O)c1 | 500 µg/mL
O=C(/C=C/c1ccc(O)c(O)c1)O[C@@H]1C[C@](O)(C(=O)O)C[C@@H](O)[C@H]1O | 1000 µg/mL
O=C1C[C@@H](c2ccc(O)cc2)Oc2cc(O)cc(O)c21 | 500 µg/mL
O=C(O)/C=C/c1ccc(O)cc1 | 500 µg/mL
O=c1c(O)c(-c2ccc(O)cc2O)oc2cc(O)cc(O)c12 | 500 µg/mL
[H]/N=C(/N)N[C@H]1[C@H](O)[C@@H](O)[C@H](O[C@@H]2O[C@@H](C)[C@](O)(C=O)[C@H]2O[C@@H]2O[C@@H](CO)[C@H](O)[C@@H](O)[C@@H]2NC)[C@@H](N/C(N)=N\[H])[C@@H]1O [Streptomycin, reference compound] | > 1000 µg/mL
O=c1c(O[C@@H]2O[C@H](CO)[C@@H](O)[C@H](O)[C@H]2O)c(-c2ccc(O)c(O)c2)oc2cc(O)cc(O)c12 | 250 µg/mL
